Assay: Long-term stability in spiked pooled human plasma
Settings: validation standard 2xLLOV
assayMetric: Long-term stability, 6 weeks, 4°C, without daylight Accuracy [%] (%)
Numbers only, in %.

# example entries with known answers
CO[C@@H]1[C@H](N(C)C(=O)c2ccccc2)C[C@H]2O[C@]1(C)n1c3ccccc3c3c4c(c5c6ccccc6n2c5c31)C(=O)NC4 [Midostaurin] :: 94.2
CC(C)(C)c1nc(-c2cccc(NS(=O)(=O)c3c(F)cccc3F)c2F)c(-c2ccnc(N)n2)s1 [Dabrafenib] :: 107.2
CNC(=O)c1ccc(N2C(=S)N(c3ccc(C#N)c(C(F)(F)F)c3)C(=O)C2(C)C)cc1F [Enzalutamide] :: 96.8

Items follow; give Long-term stability, 6 weeks, 4°C, without daylight Accuracy [%] for each.
1. COc1cc2ncnc(Nc3ccc(F)c(Cl)c3)c2cc1OCCCN1CCOCC1 [Gefitinib]
2. COC(=O)c1ccc2c(c1)NC(=O)/C2=C(\Nc1ccc(N(C)C(=O)CN2CCN(C)CC2)cc1)c1ccccc1 [Nintedanib]
3. O=C(Nc1cnn2ccc(N3CCC[C@@H]3c3cc(F)ccc3F)nc12)N1CC[C@H](O)C1 [Larotrectinib]
4. COc1cc2nccc(Oc3ccc(NC(=O)C4(C(=O)Nc5ccc(F)cc5)CC4)cc3)c2cc1OC [Cabozantinib]
5. Nc1cccc2c1C(=O)N(C1CCC(=O)NC1=O)C2=O (centres unmarked) [Pomalidomide]
6. C[C@@H](Oc1cc(-c2cnn(C3CCNCC3)c2)cnc1N)c1c(Cl)ccc(F)c1Cl [Crizotinib]

## Result
[89.3, 94.4, 106.7, 96.8, 19.0, 68.4]

Items follow; give Long-term stability, 6 weeks, 4°C, without daylight Accuracy [%] for each.
1. CN(C)C/C=C/C(=O)Nc1cc2c(Nc3ccc(F)c(Cl)c3)ncnc2cc1O[C@H]1CCOC1 [Afatinib]
2. Nc1cccc2c1CN(C1CCC(=O)NC1=O)C2=O (centres unmarked) [Lenalidomide]

## Result
1: 26.7; 2: 15.8

---

Please go through the items and note down their Long-term stability, 6 weeks, 4°C, without daylight Accuracy [%].
Experiment: Long-term stability in spiked pooled human plasma
Conditions: validation standard LLOV
Answers are plain numbers, in %.

CO[C@@H]1[C@H](N(C)C(=O)c2ccccc2)C[C@H]2O[C@]1(C)n1c3ccccc3c3c4c(c5c6ccccc6n2c5c31)C(=O)NC4 [Midostaurin] :: 102.3
C#Cc1cccc(Nc2ncnc3cc(OCCOC)c(OCCOC)cc23)c1 [Erlotinib] :: 107.0
NC(=O)c1cccc2cn(-c3ccc([C@@H]4CCCNC4)cc3)nc12 [Niraparib] :: 94.3
CN(C)C/C=C/C(=O)Nc1cc2c(Nc3ccc(F)c(Cl)c3)ncnc2cc1O[C@H]1CCOC1 [Afatinib] :: 2.9
CNC(=O)c1ccc(N2C(=S)N(c3cnc(C#N)c(C(F)(F)F)c3)C(=O)C23CCC3)cc1F [Apalutamide] :: 78.5
CS(=O)(=O)c1ccc(C(=O)Nc2ccc(Cl)c(-c3ccccn3)c2)c(Cl)c1 [Vismodegib] :: 96.6
N#CC[C@H](C1CCCC1)n1cc(-c2ncnc3[nH]ccc23)cn1 [Ruxolitinib] :: 97.9

## Task Could you share which Long-term stability, 6 weeks, 4°C, without daylight Accuracy [%] value was measured for CCN1CCN(Cc2ccc(Nc3ncc(F)c(-c4cc(F)c5nc(C)n(C(C)C)c5c4)n3)nc2)CC1 [Abemaciclib] ?
## Result 86.3

Values compiled from paper PMC8699473.
